Molecular target: PIM3 (Homo sapiens, UniProt Q86V86)
Assay: PIM kinase activity assay
Type: biochemical
pIC50: −log10 of the molar value.
readout: pIC50

Tell me measured pIC50 for COc1nc2ccc(NCC3CCN(C)CC3)nn2c1C(=O)Nc1cccc(OC(F)(F)F)c1 please.
< 5.00

====

Experiment: mESC viability (MTS) screen and dose response
Assay type: cell-based, mouse
Conditions: mouse, mouse embryonic stem cells (mESCs), 5 µM, MTS
Procedure: Mouse embryonic stem cells were cultured in Dulbecco’s Modified Eagle Medium (DMEM) containing 15% Fetal bovine serum (FBS), non-essential amino acids (NEAA), 2-mercaptoethanol, and Leukemia inhibitory factor (LIF) and passaged on gelatinized plates under standard conditions. Murine embryonic stem cells (mESCs) were plated at 20,000 cells per well in gelatinized 96 well plates. […]
readout: viability at 30 h, 5 µM (%)
Give the number; % is assumed, so skip it.

CN1CCC(CNc2ccc3ncc(C(=O)Nc4cccc(OC(F)(F)F)c4)n3n2)CC1 [Cpd 2] : 19

Tell me measured viability at 30 h, 5 µM for O=C(Nc1cccc(OC(F)(F)F)c1)c1cnc2ccc(N3CCCC4(CCNCC4)C3)nn12 [Cpd 3] please.
9

Tell me measured viability at 30 h, 5 µM for COc1nc2ccc(NCC3CCN(C)CC3)nn2c1C(=O)Nc1cccc(OC(F)(F)F)c1 [Cpd 1] please.
8

====

Biological target: PIM3 (Homo sapiens, UniProt Q86V86)
Assay: PIM kinase activity assay
Format: biochemical
Conditions: kinase orthogonal assay
readout: IC50 (nM)
Give the number; nM is assumed, so skip it.

Tell me measured IC50 for CN1CCC(CNc2ccc3ncc(C(=O)Nc4cccc(OC(F)(F)F)c4)n3n2)CC1 please.
129

====

Target: PIM1 (Homo sapiens, UniProt P11309)
Sequence (P11309 whole entry): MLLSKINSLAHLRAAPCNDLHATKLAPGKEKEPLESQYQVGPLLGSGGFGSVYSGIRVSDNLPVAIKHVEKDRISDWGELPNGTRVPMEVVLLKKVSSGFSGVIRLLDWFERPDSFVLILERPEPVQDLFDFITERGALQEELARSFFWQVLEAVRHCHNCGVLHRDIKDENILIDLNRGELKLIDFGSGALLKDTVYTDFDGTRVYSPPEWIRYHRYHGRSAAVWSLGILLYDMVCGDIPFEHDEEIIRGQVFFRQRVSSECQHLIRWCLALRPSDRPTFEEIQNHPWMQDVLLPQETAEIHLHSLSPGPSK
Assay: PIM kinase activity assay
Format: biochemical
Details: kinase orthogonal assay
Method: PIM1/3 kinase activities were measured as previously described in Martínez-Gonzalez et al.. HASPIN activity was measured using the commercial ADP GLO assay (Promega), a homogeneous assay measuring ADP accumulation, as a universal product of kinase activity. The assay was done following general manufacturer recommendations and adapting protein to optimal conditions.
readout: pIC50
Please report pIC50 as the negative decimal logarithm of the molar concentration, giving only the number.

Tell me measured pIC50 for CN1CCC(CNc2ccc3ncc(C(=O)Nc4cccc(OC(F)(F)F)c4)n3n2)CC1 [Cpd 2] please.
7.01
